// data source = patent US10472395B2

# Tested on: BT-474 human mammary gland ductal carcinoma cells
# RUN DESCRIPTION: Inhibitory response of test compounds against BT-474 cells (Cell Titer-Glo, 72 h)
# Format: cell-based
# TEST CONTEXT: Homo sapiens
Numbered stars: 1 amine (or outer) side, 2 acyl side, 3 side chain; on linkers, the order of the positions; unused ones are H or OH. Bridge positions count the residues as written; N and C are the ends. Square brackets hold non-standard residues; d marks the D form. Peptide text beside a SMILES is read from it. ξ: configuration not given here. X6 = C/C=C(\C)[C@@H](O[*:2])[C@@H](C)[C@H](C/C=C(\C)C(=O)[*:1])OCSC; X7 = C/C(=C\CCC[C@H](O[*:2])C(C)C)C(=O)[*:1]; aIle = CC[C@@H](C)[C@H](N)C(=O)O; dNMeF = CN[C@H](Cc1ccccc1)C(=O)O; Ile(3ξ) = CCC(C)[C@H](N)C(=O)O; dHica = CC(C)C[C@@H](O)C(=O)O; dNMeA = CN[C@H](C)C(=O)O; Sar = CNCC(=O)O
QUANTITY NAME: IC50

Consider the following illustrative entries.
- COMPOUND: "C/C=C(\\C)[C@H]1OC(=O)[C@@H](C)NC(=O)[C@H](C(C)CC)NC(=O)CN(C)C(=O)[C@@H](Cc2ccccc2)N(C)C(=O)[C@H](C)NC(=O)[C@@H](CC(C)C)OC(=O)/C(C)=C/CC[C@@H]1C (stereo partly shown)"
  REPORTED: "< 0.02 µM"
- COMPOUND: "C/C=C(\\C)[C@H]1OC(=O)[C@@H](C)NC(=O)[C@H](C(C)CC)NC(=O)CN(C)C(=O)[C@@H](Cc2ccccc2)N(C)C(=O)[C@H](C)NC(=O)[C@@H](CC(C)C)OC(=O)/C(C)=C/C[C@H](OC(=O)N(C)CCN(C)C(=O)OC(C)(C)C)[C@@H]1C (stereo partly shown)"
  REPORTED: "< 0.02 µM"

Query: IC50 for C/C=C(\C)[C@H]1OC(=O)[C@@H](CCCCN)NC(=O)[C@H]([C@H](C)CC)NC(=O)CN(C)C(=O)[C@@H](Cc2ccccc2)N(C)C(=O)[C@H](C)NC(=O)[C@@H](CC(C)C)NC(=O)/C(C)=C/C[C@H](OCSC)[C@@H]1C [Compound 83] ([dL]A[dNMeF][Sar][aIle][dK]; linker N-C via X6) ?
Result: > 10 µM

Query: IC50 for CCC(C)[C@@H]1NC(=O)CN(C)C(=O)[C@@H](Cc2ccccc2)N(C)C(=O)[C@H](C)NC(=O)[C@@H](CC(C)C)OC(=O)/C(C)=C/CCC[C@@H](C(C)C)OC(=O)[C@@H](C)N(C)C1=O (stereo partly shown) [Compound 88] ([dHica]A[dNMeF][Sar][Ile(3ξ)][dNMeA]; linker N-C via X7) ?
Result: 0.2 to 10 µM

---

# Tested on: BT-474 human mammary gland ductal carcinoma cells
# RUN DESCRIPTION: Inhibitory response of test compounds against BT-474 cells (Cell Titer-Glo, 72 h)
# Type: cell-based
# TEST CONTEXT: Homo sapiens
Numbered stars: 1 amine (or outer) side, 2 acyl side, 3 side chain; on linkers, the order of the positions; unused ones are H or OH. Bridge positions count the residues as written; N and C are the ends. Square brackets hold non-standard residues; d marks the D form. Peptide text beside a SMILES is read from it. ξ: configuration not given here. X9 = C/C(=C\CCCO[*:2])C(=O)[*:1]; dNMeF = CN[C@H](Cc1ccccc1)C(=O)O; Ile(3ξ) = CCC(C)[C@H](N)C(=O)O; dHica = CC(C)C[C@@H](O)C(=O)O; NMeA = CN[C@@H](C)C(=O)O; Sar = CNCC(=O)O
Let's look at some compounds and their measured IC50.

Consider the following illustrative entries.
- COMPOUND: "CCC(C)[C@@H]1NC(=O)CN(C)C(=O)[C@@H](Cc2ccccc2)N(C)C(=O)[C@H](C)NC(=O)[C@@H](CC(C)C)OC(=O)/C(C)=C/CCCOC(=O)[C@H](C)N(C)C1=O (stereo partly shown) [Compound 9] ([dHica]A[dNMeF][Sar][Ile(3ξ)][NMeA]; linker N-C via X9)"
  IC50: "> 10000 nM"
- COMPOUND: "C/C=C(\\C)[C@H]1OC(=O)[C@@H](C)NC(=O)[C@H]([C@H](C)CC)NC(=O)CN(C)C(=O)[C@@H](Cc2ccccc2)N(C)C(=O)[C@H](C)NC(=O)[C@@H](CC(C)C)OC(=O)/C(C)=C/C[C@H](OC(=O)N(C)CCN(C)C=O)[C@@H]1C"
  IC50: "< 20 nM"
- COMPOUND: "C/C=C(\\C)[C@H]1OC(=O)[C@@H](C)NC(=O)[C@H](C(C)CC)NC(=O)CN(C)C(=O)[C@@H](Cc2c[nH]c3ccccc23)N(C)C(=O)[C@H](C)NC(=O)[C@@H](CC(C)C)OC(=O)/C(C)=C/C[C@H](O)[C@@H]1C (stereo partly shown)"
  IC50: "< 20 nM"

Query: IC50 for C/C=C(\C)[C@H]1OC(=O)[C@@H](C)NC(=O)[C@H](C(C)CC)NC(=O)CN(C)C(=O)[C@@H](Cc2ccccc2)N(C)C(=O)[C@H](C)NC(=O)[C@@H](CC(C)C)OC(=O)/C(C)=C/C[C@H](O)[C@H]1C (stereo partly shown) ?
Result: 200 to 10000 nM
